Taken from ChEMBL document CHEMBL3797031.

target: E3 ubiquitin-protein ligase Mdm2 (Homo sapiens, UniProt Q00987); test: Binding affinity to human MDM2 assessed as inhibition of interaction with p53 by fluorescence polarization assay
Sequence (Q00987 whole entry): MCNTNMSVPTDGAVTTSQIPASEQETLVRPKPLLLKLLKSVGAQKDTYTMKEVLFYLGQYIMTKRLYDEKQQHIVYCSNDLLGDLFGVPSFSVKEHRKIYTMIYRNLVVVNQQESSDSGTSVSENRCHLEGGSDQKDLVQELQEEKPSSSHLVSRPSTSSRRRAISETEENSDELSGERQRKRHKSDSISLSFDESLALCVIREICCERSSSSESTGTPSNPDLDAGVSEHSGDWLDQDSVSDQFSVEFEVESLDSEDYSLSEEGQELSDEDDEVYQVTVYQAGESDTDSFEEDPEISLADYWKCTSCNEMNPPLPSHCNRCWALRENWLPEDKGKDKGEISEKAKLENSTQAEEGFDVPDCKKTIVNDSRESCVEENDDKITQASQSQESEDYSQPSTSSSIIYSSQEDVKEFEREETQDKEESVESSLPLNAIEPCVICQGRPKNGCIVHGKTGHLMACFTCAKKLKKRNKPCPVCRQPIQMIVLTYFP
pIC50: −log10 of the molar value.
REPORTED METRIC: pIC50

Record excerpt, results attached:
[[record]]
query_smiles = "CCC[C@H]1N(C(=O)c2cnccc2C(F)(F)F)CCC[C@@]1(Oc1ccc(C(F)(F)F)cc1)C(=O)N1CCC(Oc2cccc(CN)n2)CC1"
target_entity = "E3 ubiquitin-protein ligase Mdm2 (Homo sapiens, UniProt Q00987)"
observed = 6.76

[[record]]
query_smiles = "CCC[C@H]1N(C(=O)c2cnccc2C(F)(F)F)CCC[C@@]1(Oc1ccc(C(F)(F)F)cc1)C(=O)N1CCC(Oc2cccc(C(=O)NC)n2)CC1"
target_entity = "E3 ubiquitin-protein ligase Mdm2 (Homo sapiens, UniProt Q00987)"
observed = 6.94

[[record]]
query_smiles = "CCC[C@H]1N(C(=O)c2cnccc2C(F)(F)F)CCC[C@@]1(Oc1ccc(C(F)(F)F)cc1)C(=O)N1CCC(Oc2ncccn2)CC1"
target_entity = "E3 ubiquitin-protein ligase Mdm2 (Homo sapiens, UniProt Q00987)"
observed = 6.48

[[record]]
query_smiles = "CCC[C@H]1N(C(=O)c2cnccc2C(F)(F)F)CCC[C@@]1(Oc1ccc(C(F)(F)F)cc1)C(=O)N1CCC(Oc2ccc(C)cc2)CC1"
target_entity = "E3 ubiquitin-protein ligase Mdm2 (Homo sapiens, UniProt Q00987)"
observed = 5.06


[I] CCC[C@H]1N(C(=O)c2cnccc2C(F)(F)F)CCC[C@@]1(Oc1ccc(C(F)(F)F)cc1)C(=O)N1CCC(Oc2ccc(C(N)=O)cn2)CC1
[II] CCC[C@H]1N(C(=O)c2cnccc2C(F)(F)F)CCC[C@@]1(Oc1ccc(C(F)(F)F)cc1)C(=O)N1CCC(Oc2cccc(OC)n2)CC1
Task: Which numeric pIC50 is bigger, that of I or that of II ? Write the label of whichever entry you select.
Output: I
(I: 6.84, II: 5.94)
